TARGET_OR_TEST_SYSTEM: human GcgR (Homo sapiens, UniProt P47871)
Sequence (P47871 26-477): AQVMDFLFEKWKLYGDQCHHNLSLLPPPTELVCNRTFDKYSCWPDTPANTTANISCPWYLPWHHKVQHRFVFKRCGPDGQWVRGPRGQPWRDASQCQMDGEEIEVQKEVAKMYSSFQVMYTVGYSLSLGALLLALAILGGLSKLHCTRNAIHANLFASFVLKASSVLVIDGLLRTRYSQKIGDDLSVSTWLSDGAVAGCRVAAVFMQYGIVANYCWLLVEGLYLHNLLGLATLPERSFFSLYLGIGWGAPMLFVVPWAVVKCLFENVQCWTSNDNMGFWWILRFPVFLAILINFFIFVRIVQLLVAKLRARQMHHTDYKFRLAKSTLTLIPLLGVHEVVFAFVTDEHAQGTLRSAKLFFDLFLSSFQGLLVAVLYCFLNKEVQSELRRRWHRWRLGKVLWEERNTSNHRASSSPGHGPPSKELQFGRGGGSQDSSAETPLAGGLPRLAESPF
ASSAY_NOTES: Functional cAMP activity in the presence of 1% HSA
Assay type: cell-based
TEST_CONTEXT: read-out: cAMP Rel EC50, hGcgR
Starred links: 1 amine or outer side, 2 acyl side, 3 side chain; linkers in the order of their positions; H or OH if unused. Non-standard residues stand in square brackets, D forms with d. Groups on a side chain read outwards from the residue. *: point of attachment. C18 diacid = O=C(O)CCCCCCCCCCCCCCCCC(=O)*; αMePhe(2-F) = C[C@](N)(Cc1ccccc1F)C(=O)O; γGlu = O=C(O)[C@H](CCC(=O)[*:2])N[*:1]; αMe4Pal = C[C@](N)(Cc1ccncc1)C(=O)O; αMeY = C[C@](N)(Cc1ccc(O)cc1)C(=O)O; 4Pal = N[C@@H](Cc1ccncc1)C(=O)O; αMeL = CC(C)C[C@](C)(N)C(=O)O; αMeS = C[C@](N)(CO)C(=O)O; Orn = NCCC[C@H](N)C(=O)O; AEEA = NCCOCCOCC(=O)O; Aib = CC(C)(N)C(=O)O
Catalogue of EC50 readings, one per entry.

>  <SUBSTANCE>
H-Y[Aib]QGT[αMePhe(2-F)]TSD[4Pal][αMeS]I[αMeL]LD[Orn]K([AEEA-γGlu-C18 diacid])AQ[αMe4Pal]EFI[dE][αMeY]LIEGGPSSGEPPPEGE-NH2 [Example 1149]

>  <MEASUREMENT_LABEL>
EC50

>  <ASSAY_RESULT>
184 nM

$$$$

QUERY: Look up EC50 for this substance: H-Y[Aib]QGTFTSD[4Pal]SQ[αMeL]LD[Orn]K([γGlu-γGlu-C18 diacid])AQ[αMe4Pal]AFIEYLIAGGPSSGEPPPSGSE-NH2 [Example 1008]
RESULT: 1010 nM

QUERY: Look up EC50 for this substance: H-Y[Aib]QGTFTSDFS[Orn][αMeL]LDKK([AEEA-AEEA-γGlu-C18 diacid])AQ[Aib]AFIEYLLEGGPSSGAPPPSGE-NH2 [Example 107]
RESULT: 1690 nM

QUERY: Look up EC50 for this substance: H-Y[Aib]QGTFTSD[4Pal]S[Orn][αMeL]LDKK([AEEA-γGlu-C18 diacid])AQ[Aib]AFIE[αMeY]LIEGGPSSGAPPPSGS-NH2 [Example 836]
RESULT: 2100 nM

QUERY: Look up EC50 for this substance: H-Y[Aib]QGT[αMePhe(2-F)]TSD[4Pal]SILLD[Orn]K([γGlu-γGlu-C18 diacid])AQ[Aib]AFIEYLQEGGPSSGAPPPSGTEE-NH2 [Example 581]
RESULT: 1500 nM
